# Subject Of Test: GABA-A receptor; alpha-1/beta-3/gamma-2 (Homo sapiens) (UniProt P14867+P18507+P28472)
# Method Notes: Inhibition of [3H]flunitrazepam binding to full length human N-terminal flag-tagged alpha1-beta3-C-terminal 1D4-tagged gamma2 GABAA receptor extracted from Tetracycline-resistant HEK293 cell membrane assessed as reduction in [3H]flunitrazepam binding at 300 uM incubated for 30 mins relative to control
# Format: cell membranes
Observed Property: inhibition (%)
Give the number; % is assumed, so skip it.

For orientation, consider the following solved cases.
[
  {
    "Molecule": "COc1ccc2c(c1)C1(CC2)C(=O)NC(=O)N(C)C1=O (stereo in doubt; 7h-1)",
    "Unit Abbreviation": "%",
    "inhibition": 45
  },
  {
    "Molecule": "O=C1NC(=O)C2(CCCc3ccccc32)C(=O)N1",
    "Unit Abbreviation": "%",
    "inhibition": 12
  }
]

API: the following record is the query input.
The reported inhibition of the molecule Cc1ccc2c(c1)C1(CC2)C(=O)NC(=O)N(C)C1=O (stereo in doubt; 4h-1) was 12

----------
# Subject Of Test: GABA-A receptor; alpha-1/beta-3/gamma-2 (Homo sapiens) (UniProt P14867+P18507+P28472)
# Method Notes: Effect on [3H]muscimol binding to full length human N-terminal flag-tagged alpha1-beta3-C-terminal 1D4-tagged gamma2 GABAA receptor extracted from Tetracycline-resistant HEK293 cell membrane assessed as [3H]muscimol binding at 300 uM incubated for 30 mins relative to control
# Type: cell membranes
Observed Property: Activity

For orientation, consider the following solved cases.
[
  {
    "Molecule": "Cc1ccc2c(c1)C1(CC2)C(=O)NC(=S)NC1=O",
    "Activity": "< 10%"
  },
  {
    "Molecule": "O=C1NC(=O)C2(CCc3ccc(Cl)cc32)C(=O)N1",
    "Activity": "< 10%"
  }
]

API: the following record is the query input.
The reported Activity of the molecule N=C1NC(=O)C2(CCc3ccc(Cl)cc32)C(=O)N1 (centres undefined) was < 10%

----------
# Subject Of Test: GABA-A receptor; alpha-1/beta-3/gamma-2 (Homo sapiens) (UniProt P14867+P18507+P28472)
# Method Notes: Effect on [3H]muscimol binding to full length human N-terminal flag-tagged alpha1-beta3-C-terminal 1D4-tagged gamma2 GABAA receptor extracted from Tetracycline-resistant HEK293 cell membrane assessed as fold change in [3H]muscimol binding at 300 uM incubated for 30 mins
# Format: cell membranes
# Condition: filed as modulator
Measured fold change (FC) of individual entries
# answer = number (no unit)

[
  {
    "Molecule": "CN1C(=O)NC(=O)C2(CCCc3ccccc32)C1=O (stereo in doubt; 2h-1)",
    "Observed Property": "fold change (FC)",
    "Numeric Readout": 0.13
  },
  {
    "Molecule": "O=C1NC(=NO)NC(=O)C12CCc1ccccc12 (configuration not stated)",
    "Observed Property": "fold change (FC)",
    "Numeric Readout": 0.07
  },
  {
    "Molecule": "CN1C(=O)NC(=O)C2(CCc3ccc(Br)cc32)C1=O (stereo in doubt; 6h-1)",
    "Observed Property": "fold change (FC)",
    "Numeric Readout": 0.4
  },
  {
    "Molecule": "O=C1NC(=O)C2(CCCc3ccccc32)C(=O)N1",
    "Observed Property": "fold change (FC)",
    "Numeric Readout": 0.08
  },
  {
    "Molecule": "CC(C)c1ccc2c(c1)C1(CC2)C(=O)NC(=O)N(C)C1=O (stereo in doubt; 5h-2)",
    "Observed Property": "fold change (FC)",
    "Numeric Readout": 0.14
  }
]

The reported fold change (FC) of the molecule O=C1NC(=O)C2(CCc3ccc(Cl)cc32)C(=O)N1 was 0.15

The reported fold change (FC) of the molecule O=C1NC(=O)C2(CCc3ccc(Br)cc32)C(=O)N1 was 0.05

The reported fold change (FC) of the molecule NN=C1NC(=O)C2(CCc3ccccc32)C(=O)N1 (configuration not stated) was -0.02

The reported fold change (FC) of the molecule N=C1NC(=O)C2(CCc3ccc(Cl)cc32)C(=O)N1 (configuration not stated) was 0.02

The reported fold change (FC) of the molecule CCN1C(=O)NC(=O)C2(CCc3ccccc32)C1=O (stereo in doubt; 1i-1) was 0.05
